The measured values listed here are drawn from patent US6846805B2.

Test system: γ-secretase (production of total Aβ)
Assay: Inhibition of total Aβ production in APP-transfected cells (sandwich ELISA)
Assay type: cell-based
Conditions: cell-based assay, CHO cells stably transfected with human APP; read-out: IC50 (concentration of compound that reduced production of total Aβ by 50%)
Protocol: Based on the helical model for the APP transmembrane domain, we have identified short peptides designed to adopt a similar conformation that block γ-secretase activity. […] We also discovered that an Aib decapeptide that is not based on the APP sequence (VIIb in ref 19: […] The crystal structure of this compound has been determined, and the peptide is fully helical (19). […] In this iterative fashion, the optimal residue for each position is determined.
Square brackets hold non-standard residues; d marks the D form. Peptide text beside a SMILES is read from it. * marks the point of attachment. Boc = CC(C)(C)OC(=O)*; Aib = CC(C)(N)C(=O)O; Bn = c1ccc(C*)cc1
Here, each record is paired with measured pIC50 data.
// returns pIC50 (minus log10 of molar concentration), number only

Some molecules with known pIC50 results, for comparison:
1. CC[C@H](C)[C@H](NC(=O)[C@@H](NC(=O)OC(C)(C)C)C(C)C)C(=O)NC(C)(C)C(=O)N[C@H](C(=O)N[C@H](C(=O)NC(C)(C)C(=O)OC)C(C)C)[C@@H](C)OCc1ccccc1 [Compound 6, Boc-Val-Ile-Aib-Thr(OBz)-Val-Aib-OMe] (Boc-VI[Aib]T(Bn)V[Aib]-OMe) | 4.92
2. CC[C@H](C)[C@H](NC(=O)OC(C)(C)C)C(=O)N[C@@H](C)C(=O)N[C@H](C(=O)NC(C)(C)C(=O)N[C@H](C(=O)N[C@H](C(=O)NC(C)(C)C(=O)OC)C(C)C)[C@@H](C)CC)[C@@H](C)OCc1ccccc1 [Compound 2, Boc-Ile-Ala-Thr(OBz)-Aib-Ile-Val-Aib-OMe] (Boc-IAT(Bn)[Aib]IV[Aib]-OMe) | 4.82

For the next question, use this molecule.
Incoming: Using the record for CC[C@H](C)[C@H](NC(=O)[C@@H](NC(=O)[C@@H](NC(=O)C(C)(C)NC(=O)OC(C)(C)C)C(C)C)C(C)C)C(=O)NC(C)(C)C(=O)N[C@H](C(=O)N[C@H](C(=O)NC(C)(C)C(=O)OC)C(C)C)[C@@H](C)OCc1ccccc1 [Compound 8] (Boc-[Aib]VVI[Aib]T(Bn)V[Aib]-OMe) , state its measured pIC50.
Outgoing: 5.22

====

Tested on: γ-secretase (production of total Aβ)
Test: Inhibition of total Aβ production in APP-transfected cells (sandwich ELISA)
Type: cell-based
Conditions: cell-based assay, CHO cells stably transfected with human APP; read-out: IC50 (concentration of compound that reduced production of total Aβ by 50%)
Square brackets hold non-standard residues; d marks the D form. Peptide text beside a SMILES is read from it. * marks the point of attachment. Boc = CC(C)(C)OC(=O)*; Aib = CC(C)(N)C(=O)O; Bn = c1ccc(C*)cc1
Mark True only for IC50 values smaller than 3 µM; exact matches and larger values are False.

1) CC[C@H](C)[C@H](NC(=O)C(C)(C)NC(=O)[C@@H](NC(=O)[C@H](C)NC(=O)OC(C)(C)C)[C@@H](C)OCc1ccccc1)C(=O)N[C@H](C(=O)NC(C)(C)C(=O)OC)C(C)C [Compound 1, Boc-Ala-Thr(OBz)-Aib-Ile-Val-Aib-OMe] (Boc-AT(Bn)[Aib]IV[Aib]-OMe) | False
2) CC[C@H](C)[C@H](NC(=O)C(C)(C)NC(=O)[C@@H](NC(=O)CNC(=O)OC(C)(C)C)C(C)C)C(=O)N[C@@H](C)C(=O)N[C@H](C(=O)NC(C)(C)C(=O)N[C@H](C(=O)N[C@H](C(=O)NC(C)(C)C(=O)OC)C(C)C)[C@@H](C)CC)[C@@H](C)OCc1ccccc1 [Compound 5] (Boc-GV[Aib]IAT(Bn)[Aib]IV[Aib]-OMe) | False
3) CC[C@H](C)[C@H](NC(=O)[C@@H](NC(=O)[C@@H](NC(=O)OC(C)(C)C)C(C)C)C(C)C)C(=O)NC(C)(C)C(=O)N[C@H](C(=O)N[C@H](C(=O)NC(C)(C)C(=O)OC)C(C)C)[C@@H](C)OCc1ccccc1 [Compound 7, Boc-Val-Val-Ile-Aib-Thr(OBz)-Val-Aib-OMe] (Boc-VVI[Aib]T(Bn)V[Aib]-OMe) | False
4) COC(=O)C(C)(C)NC(=O)[C@H](CC(C)C)NC(=O)[C@H](C)NC(=O)C(C)(C)NC(=O)[C@H](CC(C)C)NC(=O)[C@H](C)NC(=O)C(C)(C)NC(=O)[C@H](CC(C)C)NC(=O)[C@H](C)NC(=O)C(C)(C)NC(=O)OC(C)(C)C [VIIb, reference compound] (Boc-[Aib]AL[Aib]AL[Aib]AL[Aib]-OMe) | True
5) CC[C@H](C)[C@H](NC(=O)C(C)(C)NC(=O)[C@@H](NC(=O)OC(C)(C)C)C(C)C)C(=O)N[C@@H](C)C(=O)N[C@H](C(=O)NC(C)(C)C(=O)N[C@H](C(=O)N[C@H](C(=O)NC(C)(C)C(=O)OC)C(C)C)[C@@H](C)CC)[C@@H](C)OCc1ccccc1 [Compound 4] (Boc-V[Aib]IAT(Bn)[Aib]IV[Aib]-OMe) | True

With those in mind, consider the next compound.
Incoming: In the record for CC[C@H](C)[C@H](NC(=O)C(C)(C)NC(=O)OC(C)(C)C)C(=O)N[C@@H](C)C(=O)N[C@H](C(=O)NC(C)(C)C(=O)N[C@H](C(=O)N[C@H](C(=O)NC(C)(C)C(=O)OC)C(C)C)[C@@H](C)CC)[C@@H](C)OCc1ccccc1 [Compound 3] (Boc-[Aib]IAT(Bn)[Aib]IV[Aib]-OMe) , is IC50 less than 3 µM?
Outgoing: False
